Readout type: melting point

Molecule: COC(=O)C(=O)c1oc2ccc(Cc3ccc(F)cc3)cc2c1O [Compound E-5]
melting point: 128 to 130 °C

Given the molecule O=C(C=C(O)c1ccco1)c1ccc(Cc2ccc(F)cc2)o1 [Compound B-1] , what is its reported melting point?
44 to 45 °C

Given the molecule O=C(c1ccccn1)c1oc2ccc(Cc3ccc(F)cc3)cc2c1O [Compound E-8] , what is its reported melting point?
258 °C (dec.)

Given the molecule O=C(C=C(O)c1ncccc1C(=O)O)c1ccc(Cc2ccc(F)cc2)o1 [Compound B-9] , what is its reported melting point?
127 to 130 °C

Given the molecule Cc1cc(C(O)=CC(=O)c2ccc(Cc3ccc(F)cc3)o2)no1 [Compound A-10] , what is its reported melting point?
95 to 97 °C

Given the molecule O=C(C=C(O)c1ncccn1)c1ccc(Cc2ccc(F)cc2)o1 [Compound A-2] , what is its reported melting point?
77 to 80 °C

Given the molecule O=C(O)c1ccc(C(O)=CC(=O)c2ccc(Cc3ccc(F)cc3)o2)nc1 [Compound A-6] , what is its reported melting point?
196 to 198 °C

Given the molecule O=C(C=C(O)c1nn[nH]n1)c1ccc(Cc2ccc(F)cc2)o1 [Compound A-1] , what is its reported melting point?
121 to 123 °C

Given the molecule O=C(C=C(O)c1cnccn1)c1ccc(Cc2ccc(F)cc2)o1 [Compound A-3] , what is its reported melting point?
127 to 129 °C

Given the molecule O=C(C=C(O)c1ccccn1)c1ccc(Cc2ccc(F)cc2)o1 [Compound A-4] , what is its reported melting point?
84 to 85 °C

Given the molecule O=C(C=C(O)c1ccon1)c1ccc(Cc2ccc(F)cc2)o1 [Compound A-9] , what is its reported melting point?
50 to 52 °C

Given the molecule O=C(C=C(O)c1cc2ccccc2cn1)c1ccc(Cc2ccc(F)cc2)o1 [Compound A-7] , what is its reported melting point?
154 to 156 °C

* * *

Property: change in the UV spectrum curve as the metal ion concentration was increased; scope: individual compounds
Procedure text: UV spectrum measurement with stepwise addition of Mg2+ solution (chelate formation)
Type: physicochemical
Stated conditions: compound 0.05 mmol/l, Mg2+ 0 to 3.6 mol/l, 240 nm to 500 nm, cell length 1 cm
Procedure: Compounds C-1, D-2, D-5 and D-6 were employed to determine UV spectra with treating dropwise with metal solutions. The UV spectrum measurement was conducted with the cell length of 1 cm at a wavelength of 240 nm to 500 nm. Each test solution was obtained by preparing Solutions A^1, A2, B and C as shown below, adding an indicated volume of Solution A^1 or A2 to 1 ml of Solution B, making the total, volume 10 ml with Solution C. […]

Some solved cases for reference:
Chemical structure: O=C(O)/C(O)=C/c1cc(CCc2ccccc2)ncn1
Result: 2-step change

Chemical structure: O=C(O)C(O)=Cc1ccnc(CCc2ccccc2)c1
Result: 1-step change

Here is the next item to consider.
Given the compound OC(=Cc1cc(CCc2ccccc2)ncn1)c1ccccc1 , what is its reported change in the UV spectrum curve as the metal ion concentration was increased?
1-step change

* * *

Target: HIV-1 integrase (Human immunodeficiency virus type 1 group M subtype B)
Procedure text: HIV-1 integrase inhibition assay (microtiter plate, immobilised substrate DNA, Dig-labelled target DNA, OD 405 nm)
Type: biochemical
Readout type: IC50

Molecule: O=C(C=C(O)c1cccs1)c1ccc(Cc2ccc(F)cc2)o1 [Compound B-3]
IC50: > 305 µM

Given the molecule O=C(C=C(O)c1ccncc1)c1ccc(Cc2ccc(F)cc2)o1 [Compound B-8] , what is its reported IC50?
> 309 µM

Given the molecule O=C(C=C(O)c1ccco1)c1ccc(Cc2ccc(F)cc2)o1 [Compound B-1] , what is its reported IC50?
> 320 µM

Given the molecule O=C(/C=C(\O)c1ccc[nH]1)c1ccc(Cc2ccc(F)cc2)o1 [Compound B-6] , what is its reported IC50?
> 321 µM

Given the molecule Cc1cc(C(O)=Cc2cc(CCc3ccccc3)ncn2)on1 [Compound D-1] , what is its reported IC50?
> 325 µM

Given the molecule O=C(C=C(O)c1cccnc1)c1ccc(Cc2ccc(F)cc2)o1 [Compound B-4] , what is its reported IC50?
> 309 µM

Given the molecule O=C(C=C(O)c1ncccc1C(=O)O)c1ccc(Cc2ccc(F)cc2)o1 [Compound B-9] , what is its reported IC50?
> 272 µM

Given the molecule O=C(C=C(O)c1ccoc1)c1ccc(Cc2ccc(F)cc2)o1 [Compound B-2] , what is its reported IC50?
> 320 µM

Given the molecule OC(=Cc1cc(CCc2ccccc2)ncn1)c1ccccc1 [Compound D-6] , what is its reported IC50?
> 331 µM

* * *

Target: UniProt:P04585
Procedure text: HIV-1 integrase inhibition assay (microtiter plate, immobilised substrate DNA, Dig-labelled target DNA, OD 405 nm)
Format: biochemical
Property: pIC50; scope: individual compounds
Notebook: values listed as pIC50 are -log10 of the concentration (mol/L).

Some solved cases for reference:
Compound: O=C(O)C(=O)c1oc2ccc(OCc3ccc(F)cc3)cc2c1O [Compound E-2]
pIC50: 5.10
--
Compound: O=C(O)/C(O)=C/c1cc(CCc2ccccc2)ncn1 [Compound C-1]
pIC50: 5.26
--
Compound: Cc1cc(C(O)=CC(=O)c2ccc(Cc3ccc(F)cc3)o2)no1 [Compound A-10]
pIC50: 5.26

Here is the next item to consider.
Given the compound OC(=Cc1cc(CCc2ccccc2)ncn1)c1cnccn1 [Compound C-5] , what is its reported pIC50?
5.28

* * *

Property: melting point; scope: individual compounds

Some solved cases for reference:
Chemical structure: O=C(C=C(O)c1cccnc1)c1ccc(Cc2ccc(F)cc2)o1
melting point: 53 to 54 °C
//
Chemical structure: O=C(O)C(=O)c1oc2ccc(Cc3ccc(F)cc3)cc2c1O
melting point: 207 to 210 °C
//
Chemical structure: O=C(C=C(O)c1ccoc1)c1ccc(Cc2ccc(F)cc2)o1
melting point: 53 to 55 °C
//
Chemical structure: O=C(O)c1ccnc(C(O)=CC(=O)c2ccc(Cc3ccc(F)cc3)o2)c1
melting point: 208 to 210 °C
//
Chemical structure: O=C(C=C(O)c1ccncc1)c1ccc(Cc2ccc(F)cc2)o1
melting point: 90 to 92 °C
//
Chemical structure: O=C(C=C(O)c1cccs1)c1ccc(Cc2ccc(F)cc2)o1
melting point: 50 to 52 °C
//
Chemical structure: Cn1cccc1C(O)=CC(=O)c1ccc(Cc2ccc(F)cc2)o1
melting point: 75 to 76 °C

Here is the next item to consider.
Given the compound Cc1cc(C(O)=CC(=O)c2ccc(Cc3ccc(F)cc3)o2)on1 , what is its reported melting point?
106 to 107 °C

* * *

Target: HIV-1 integrase (Human immunodeficiency virus type 1 group M subtype B, UniProt P04585)
Procedure text: HIV-1 integrase inhibition assay (microtiter plate, immobilised substrate DNA, Dig-labelled target DNA, OD 405 nm)
Format: biochemical
Property: IC50; scope: individual compounds

Compound: Cn1cccc1C(O)=CC(=O)c1ccc(Cc2ccc(F)cc2)o1
IC50: > 307 µM

Given the compound Cc1cc(C(O)=CC(=O)c2ccc(Cc3ccc(F)cc3)o2)on1 , what is its reported IC50?
> 306 µM

Given the compound O=C(O)C(O)Cc1cc(CCc2ccccc2)ncn1 (stereo not drawn) , what is its reported IC50?
> 367 µM
